# TARGET_SYSTEM: T1, Human IL-11 (human, UniProt P20809 22-199); further: test concentration or dose not given here
# T1 sequence: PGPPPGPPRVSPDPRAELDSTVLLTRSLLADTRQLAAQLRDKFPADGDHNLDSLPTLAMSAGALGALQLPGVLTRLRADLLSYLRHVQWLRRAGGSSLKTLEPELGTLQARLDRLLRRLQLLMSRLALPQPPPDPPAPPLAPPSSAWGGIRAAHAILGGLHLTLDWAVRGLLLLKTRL
# PROTOCOL_NOTES: cell-based or functional assay
OBSERVABLE: MMP2 production, Experiment 2 (human atrial fibroblasts + TGFB1) (ng/mL)
Value expressed in ng/mL; do not type the unit.

BINDER	OUTPUT_UNIT	TEST_RESULT
YU100-F07 (antibody) QVQLVESGGGVVQPGRSLRLSCAASGFTFSSYAMHWVRQAPGKGLEWVAVISYDGSNKYYADSVKGRFTISRDNSKNTLYLQMNSLRAEDTAVYYCARIMGYDYGDYDVVDYWGQGTLVTVSSGSASAPKLEEGEFSEARVQSALTQPRSVSVSPGQSVTISCTGTSSDVGGYEYVSWYQQHPGKAPKLMIYDVTKRPSGVPDRFSGSKSGNTASLTISGLQGEDAADYYCCSYAGSYTWVFGGGTTVTVL	ng/mL	46.6
YU100-G10 (antibody) QVQLVQSGGGVVQPGRSLRLSCAASGFTFSSYGMHWVRQAPGKGLEWVAVISYDGSNKYYADSVKGRFTISRDNSKNTLYLQMNSLRAEDTAVYYCAKIGATDPLDYWGQGTLVTVSSGSASAPKLEEGEFSEARVQSALTQPASVSGSLGQSITMSCTGTRRDVGGYDFVSWYQQYPGKAPKLIIYDVSNRPSGVSNRFTGSKSGNTASLTISGLQAEDEADYYCCSYAGTYTWVFGGGTKVTVL	ng/mL	45.4

In the following, a different binder is considered.
Ask: // returns reported MMP2 production, Experiment 2 (human atrial fibroblasts + TGFB1) for input YU112-F05 (antibody) EVQLVQSGGGVVQPGRSLRLSCAASGFTFGSYGMHWVRQAPGKGLEWVAVISYDGSNKYYADSVKGRFTISRDNSKNTLYLQMNSLRAEDTAVYYCAKIGATDPLDYWGQGTLVTVSSGSASAPKLEEGEFSEARVQSALTQPRSVSGSPGQSVTISCTGTSSDVGGYNYVSWYQQHPGKAPKLIIYDVNNRPSGVSNRFSASKSGNTASLTISGLQAEDEADYYCNSYTSGSTWVFGGGTKLTVL
Result: 48.5

FYI, the data here is from patent US20210230266A1.
